B1: ZNF8 (parent)
chain: KPYTCSVCGKSFSRTTCLFLHLRT

variants of: B1; assay: protein stability index of a GFP-peptide fusion (GPS, HEK-293T) (PSI 1-6); higher = more stable; conditions: c terminus: a fixed tail appended;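 further: lentivirally expressed fusions sorted by FACS into six bins by GFP to DsRed ratio, PSI derived from sequencing read proportions per bin multiplied by bin number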
Listed variants paired with reported protein stability index
Respond using a number only.

Some solved entries appear below for comparison.
var: Y3L
reported measurement: 2.19
//
var: L18G
reported measurement: 2.44

Let us move to another entry and its protein stability index.
Task: Which protein stability index reading was recorded for the variant S13M ?
Output: 1.88
